Target: Human VR1 Receptor (Homo sapiens, UniProt Q8NER1)
Sequence (Q8NER1 whole entry): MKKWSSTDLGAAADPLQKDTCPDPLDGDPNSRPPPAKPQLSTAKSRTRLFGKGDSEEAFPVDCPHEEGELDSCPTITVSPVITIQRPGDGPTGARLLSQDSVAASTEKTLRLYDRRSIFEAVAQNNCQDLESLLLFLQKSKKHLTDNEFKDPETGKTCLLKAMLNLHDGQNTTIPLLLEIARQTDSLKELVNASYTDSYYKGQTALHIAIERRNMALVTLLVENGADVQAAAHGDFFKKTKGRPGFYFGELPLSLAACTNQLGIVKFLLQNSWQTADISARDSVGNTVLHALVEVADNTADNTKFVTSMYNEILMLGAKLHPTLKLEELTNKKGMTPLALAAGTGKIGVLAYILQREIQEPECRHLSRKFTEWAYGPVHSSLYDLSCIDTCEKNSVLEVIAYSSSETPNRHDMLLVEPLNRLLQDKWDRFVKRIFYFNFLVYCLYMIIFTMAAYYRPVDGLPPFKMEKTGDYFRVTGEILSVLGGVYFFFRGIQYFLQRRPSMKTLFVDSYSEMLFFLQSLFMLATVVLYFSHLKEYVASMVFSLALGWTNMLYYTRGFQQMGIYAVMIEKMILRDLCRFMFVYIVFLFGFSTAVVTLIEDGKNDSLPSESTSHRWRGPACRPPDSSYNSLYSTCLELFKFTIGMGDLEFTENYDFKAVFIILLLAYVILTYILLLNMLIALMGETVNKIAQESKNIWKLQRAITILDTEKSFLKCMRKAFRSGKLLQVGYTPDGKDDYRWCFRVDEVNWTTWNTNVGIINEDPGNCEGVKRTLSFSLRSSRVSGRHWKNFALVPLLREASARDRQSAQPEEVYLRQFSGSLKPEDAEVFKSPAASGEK
Assay: Inhibition of capsaicin-induced activation of VR1
Assay type: cell-based
Conditions: mean ± SEM, n = number of experiments
From the text: Methods for assaying compounds capable of inhibiting VR1 are well known to those skilled in the art, for example, those methods disclosed in U.S. Pat. No. 6,239,267 to Duckworth et al.; U.S. Pat. No. 6,406,908 to McIntyre et al.; or U.S. Pat. No. 6,335,180 to Julius et al.
PARAMETER: IC50 (nM)

• CC(C)(C)c1ccc(NC(=O)N2CCN(c3ncccc3F)CC2)cc1 = 1.3
